# Procedure summary: mRNA encapsulation by Qubit RNA HS dye fluorescence before and after Triton X-100 lysis
# Format: physicochemical
# Condition summary: Fluc mRNA/peptoid formulation, 5:1 mass ratio peptoid:cargo
Measurement label: % Encapsulation (percentage of mRNA encapsulation) (%)
Numbers only, in %.

Input `CCCCCCCCCCN(CC(N)=O)C(=O)CN(CCCCCCCCCC)C(=O)CN(CCc1ccccc1)C(=O)CN(CCc1ccccc1)C(=O)CN(CCN)C(=O)CN(CCc1ccccc1)C(=O)CN(CCc1ccccc1)C(=O)CN(CCN)C(=O)CN(CCc1ccccc1)C(=O)CN(CCc1ccccc1)C(=O)CN(CCN)C(=O)CN(CCc1ccccc1)C(=O)CN(CCc1ccccc1)C(=O)CNCCN` . Output % Encapsulation (percentage of mRNA encapsulation): 87.8
